molecular target: Catechol O-methyltransferase (Homo sapiens); assay: Primary Screen for Target Class Profiling of Small Molecule Inhibitors of Methyltransferases; settings: purified enzyme, MTase-Glo SAH luminescence; at 40 µM, hits give low values; note: % is set by controls: 0 for no effect and ±100 for the full control effect
Among all 25,000 compounds or so, about 970 (3.9%) were called active. Another 8% or so got no clear call; they are omitted. The full list was thinned out, with actives kept by preference.
quantity kind: activity change, negative = inhibition (%)
Numbers only, in %.

Worked examples follow.
{"columns": ["compound", "system", "value"],
 "data": [
  ["COc1ccc(NC(=O)c2ccc(-c3ccc(C(=N)N)cc3C)cc2)cc1N1CCN(C)CC1", "Catechol O-methyltransferase (Homo sapiens)", -7.6],
  ["O=c1c2ccccc2n2c(=O)n(Cc3ccccc3)nc2n1Cc1ccc(F)cc1", "Catechol O-methyltransferase (Homo sapiens)", 6.23],
  ["CCCn1c(=O)c2cc(Cl)ccc2n2c(SCC(=O)Nc3cccc(Cl)c3)nnc12", "Catechol O-methyltransferase (Homo sapiens)", -3.39],
  ["CC[C@@H](c1ccc(F)c(F)c1)n1c(C(=O)OC)c(-c2ccno2)[nH]c1=S", "Catechol O-methyltransferase (Homo sapiens)", 6.91],
  ["COc1cccc(-c2nnc3n(CCc4ccccc4)c(=O)c4ccccc4n23)c1O", "Catechol O-methyltransferase (Homo sapiens)", 0.892]
]}

Go through the list and state activity change, negative = inhibition for each entry.
1. CC(C)CCN1CC2(CCCN(C(=O)c3ccn(C)c(=O)c3)C2)CCC1=O (stereo not drawn)
2. CC(C)c1nccn1CCCNc1nc(-c2ccncc2)nc2c1cnn2C
3. COc1cc(C)c(C(=O)Oc2cc(C)c(C(=O)Oc3cc(C)c(C(=O)NC(C)C(=O)O)c(O)c3)c(O[C@@H]3O[C@H](CO)[C@@H](O)[C@H](O)[C@H]3OC(C)=O)c2)c(OC)c1 (stereo partly drawn)

-31.2
-44.5
-0.843
